# protocol.description: Cmax in ICR mouse plasma at 3 umol/kg, iv
# Assay type: ADME, cell-free
# Parameters: dose 3 umol/kg, route intravenous
attribute.measured: Cmax (ng/mL)
Give bare numbers, in ng/mL.

COc1cccc2c(C(=O)N3CCN(C)[C@@H](C)C3)cn(CC3CCCCC3)c12.Cl : 620

Now examine the next entry.
Form field Cmax, entry `COc1cccc2c(C(=O)N3C[C@@H](C)N(C)[C@@H](C)C3)cn(CC3CCCCC3)c12.Cl` : 593

* * *

# protocol.description: Intrinsic clearance in mouse liver microsomes
# Type: ADME
# condition.label: read-out: CLH
attribute.measured: microsomal CLint

COc1cccc2c(C(=O)N3CCN(C)[C@@H](C)C3)cn(CC3CCCCC3)c12.Cl : > 270 µL/min/mg

Now examine the next entry.
Form field microsomal CLint, entry `COc1cccc2c(C(=O)N3C[C@@H](C)N(C)[C@@H](C)C3)cn(CC3CCCCC3)c12.Cl` : > 270 µL/min/mg

* * *

Heads up, these molecules all have log10 EC50 values measured for Cannabinoid receptor 1 (Homo sapiens).
Response schema: value (number) is log10 of EC50 in units of nM.

O=C(NCc1ccccc1)c1cn(CC2CCCCC2)c2ccccc12 : 1.80
CCN1CCN(C(=O)c2cn(CC3CCCCC3)c3c(OC)cccc23)CC1(C)C.Cl : 2.10
CCN1CCN(C(=O)c2cn(CC3CCCCC3)c3cc(Br)ccc23)CC1 : 3.00

Please supply log10 EC50 for each of the following items, keeping them in order.
1. CCN1CCN(C(=O)c2cn(CC3CCCCC3)c3ccc(Cl)cc23)CC1
2. CCN1CCN(C(=O)c2cn(CC3CCCCC3)c3c(C)cccc23)CC1
3. COc1cccc2c(C(=O)N3CCN(C)C(C)(C)C3)cn(CC3CCCCC3)c12.Cl

1. 3.10
2. 2.30
3. 2.20

* * *

# protocol.description: Tmax in ICR mouse plasma at 3 umol/kg, iv
# Type: ADME, cell-free
Please provide measured Tmax for the entries that follow.
One number for each entry, in min.

COc1cccc2c(C(=O)N3C[C@@H](C)N(C)[C@@H](C)C3)cn(CC3CCCCC3)c12.Cl : 3

Now examine the next entry.
Form field Tmax, entry `COc1cccc2c(C(=O)N3CCN(C)[C@@H](C)C3)cn(CC3CCCCC3)c12.Cl` : 3

* * *

Please provide measured Tmax for the entries that follow.
# protocol.description: Tmax in ICR mouse brain at 3 umol/kg, iv
# Format: ADME, tissue-based
Answers are plain numbers, in min.

COc1cccc2c(C(=O)N3CCN(C)[C@@H](C)C3)cn(CC3CCCCC3)c12.Cl : 10.2

Form field Tmax, entry `COc1cccc2c(C(=O)N3C[C@@H](C)N(C)[C@@H](C)C3)cn(CC3CCCCC3)c12.Cl` : 3

* * *

# protocol.description: Aqueous solubility of the compound in citrate buffer at pH 5 by shake-flask method
# Assay type: physicochemical
attribute.measured: solubility thermodynamic (µg/mL)
Give bare numbers, in µg/mL.

COc1cccc2c(C(=O)N3CCN(C)C(C)(C)C3)cn(CC3CCCCC3)c12.Cl : 2160
COc1cccc2c(C(=O)N3CCN(C)[C@H](C)C3)cn(CC3CCCCC3)c12.Cl : 2860
CCN1CCN(C(=O)c2cn(CC3CCCCC3)c3c(OC)cccc23)CC1.O=C(O)/C=C\C(=O)O : 3400

Now examine the next entry.
Form field solubility thermodynamic, entry `CCN1CCN(C(=O)c2cn(CC3CCCCC3)c3c(OC)cccc23)CC1(C)C.Cl` : 3830

* * *

Please provide measured solubility thermodynamic for the entries that follow.
# protocol.description: Aqueous solubility of the compound in phosphate buffered saline at pH 7.1 by shake-flask method
# Assay type: physicochemical

Completed entries (count: 3):
COc1cccc2c(C(=O)N3CCN(C)[C@H](C)C3)cn(CC3CCCCC3)c12.Cl : 88 µg/mL
CCN1CCN(C(=O)c2cn(CC3CCCCC3)c3c(OC)cccc23)C[C@H]1C.Cl : 74 µg/mL
CCN1CCN(C(=O)c2cn(CC3CCCCC3)c3c(OC)cccc23)C[C@@H]1C.Cl : 37 µg/mL

Form field solubility thermodynamic, entry `CCN1CCN(C(=O)c2cn(CC3CCCCC3)c3c(OC)cccc23)CC1(C)C.Cl` : 181 µg/mL

* * *

# protocol.description: Ratio of Cmax in brain to plasma in ICR mouse at 3 umol/kg, iv
# Type: ADME, cell-free
# condition.label: brain and plasma, read-out: BPR
Please provide measured Kp for the entries that follow.
One number for each entry.

COc1cccc2c(C(=O)N3C[C@@H](C)N(C)[C@@H](C)C3)cn(CC3CCCCC3)c12.Cl : 2.7

Form field Kp, entry `COc1cccc2c(C(=O)N3CCN(C)[C@@H](C)C3)cn(CC3CCCCC3)c12.Cl` : 4
